Assay: in vivo
Settings: male, Sprague-Dawley, rat, po, 30 mg/kg, Half-life, Median (IQR), all rats, NMR in the presence of RTV
MEASUREMENT_KIND: half-life (h)
Answer in h, number only, no unit symbol.

Just so you know, measured half-life for CC(C)(C)[C@H](NC(=O)C(F)(F)F)C(=O)N1C[C@H]2[C@@H]([C@H]1C(=O)N[C@H](C#N)C[C@@H]1CCNC1=O)C2(C)C [NMR, nirmatrelvir] came out at 2.55

====

Assay: in vivo
Conditions: male, Sprague-Dawley, rat, AR Brain, Median (IQR), rats
MEASUREMENT_KIND: Kp
Provide a numeric answer; units are not to be included.

Per the record, CC(C)(C)[C@H](NC(=O)C(F)(F)F)C(=O)N1C[C@H]2[C@@H]([C@H]1C(=O)N[C@H](C#N)C[C@@H]1CCNC1=O)C2(C)C has Kp of 0.15

====

Test: in vivo
Settings: male, Sprague-Dawley, rat, po, 30 mg/kg, AUCdaily_average Plasma, Median (IQR), excluding rat 7
MEASUREMENT_KIND: AUC (ng·h/mL)
Report the value in ng·h/mL with no unit label.

Per the records, this molecule ( CC(C)(C)[C@H](NC(=O)C(F)(F)F)C(=O)N1C[C@H]2[C@@H]([C@H]1C(=O)N[C@H](C#N)C[C@@H]1CCNC1=O)C2(C)C [NMR, nirmatrelvir] ) has AUC equal to 25600

====

Assay: in vivo
Settings: male, Sprague-Dawley, rat, po, 30 mg/kg, AUC0-endoftreatment Plasma, Median (IQR), excluding rat 7
MEASUREMENT_KIND: AUC (µg·h/mL)
Give just the number in µg·h/mL; leave the unit off.

Noted for CC(C)(C)[C@H](NC(=O)C(F)(F)F)C(=O)N1C[C@H]2[C@@H]([C@H]1C(=O)N[C@H](C#N)C[C@@H]1CCNC1=O)C2(C)C : its AUC reads 128

====

Experiment: in vivo
Conditions: male, Sprague-Dawley, rat, po, 30 mg/kg, Average Tmax, Mean (SD), all rats, calculated to compare to literature values
MEASUREMENT_KIND: Tmax (h)
Field: numeric (h). Do not append units.

CC(C)(C)[C@H](NC(=O)C(F)(F)F)C(=O)N1C[C@H]2[C@@H]([C@H]1C(=O)N[C@H](C#N)C[C@@H]1CCNC1=O)C2(C)C has a reported Tmax of 1.84

====

Experiment: in vivo
Details: male, Sprague-Dawley, rat, po, 30 mg/kg, AUCdaily_average Plasma, Geometric mean (Geometric SD factor), excluding rat 7, calculated to compare to clinical data
MEASUREMENT_KIND: AUC (ng·h/mL)
Give a bare numeral; the unit ng·h/mL is implied.

Field AUC (entry CC(C)(C)[C@H](NC(=O)C(F)(F)F)C(=O)N1C[C@H]2[C@@H]([C@H]1C(=O)N[C@H](C#N)C[C@@H]1CCNC1=O)C2(C)C ) reads 20200

====

Experiment: in vivo
Conditions: male, Sprague-Dawley, rat, po, 30 mg/kg, AUC0-endoftreatment Plasma, Median (IQR), all rats
MEASUREMENT_KIND: AUC (µg·h/mL)
Respond numerically; units are µg·h/mL and should not be typed.

The reported AUC of the compound CC(C)(C)[C@H](NC(=O)C(F)(F)F)C(=O)N1C[C@H]2[C@@H]([C@H]1C(=O)N[C@H](C#N)C[C@@H]1CCNC1=O)C2(C)C was 114
